TEST DETAILS: NCI Yeast Anticancer Drug Screen. Data for the mec2-1 strain (AID 157)
EXPERIMENTAL CONTEXT: S. cerevisiae mec2-1 strain, at 5.0 µM (retest, dose inferred, filed as 0.5), stronger effect = higher value
The panel holds about 79,000 compounds, 15% with a hit somewhere; the sample as a whole holds those more often.
VALUE KIND: growth inhibition (%)
One number for each entry, in %.

Known results for molecules:
CCCCCCCCCCNC(=O)C[n+]1cccc(C(=O)NCc2ccccc2)c1 ... -1
COc1ccc(C2c3cc4c(cc3OC(O)C2C)OCO4)c(OC)c1 (stereo not drawn) ... 1

Now for a further molecule.
Query :: // query growth inhibition value for entry S=C(N/N=C/c1ccccn1)N1CC2CCC(CC2)C1
Result :: 99

====

TEST DETAILS: NCI Yeast Anticancer Drug Screen. Data for the bub3 strain (AID 167)
EXPERIMENTAL CONTEXT: S. cerevisiae bub3 mutant strain, at 50.0 µM, stronger effect = higher value
This is part of a sample that, as a whole, favours compounds with a hit. Of some 79,000 tested, about 15% had one in any assay.
VALUE KIND: growth inhibition (%)
Numbers only, in %.

Sample answers from the record:
O=C1C(Cl)=C(c2ccccc2)C1Cl (centres undefined) ... 99.5
CCOC(=O)C1=C(C)Oc2cc3c(cc2C1c1cc(OC)c(OC)c(OC)c1)OCO3 (centres undefined) ... 55.6
O=[N+]([O-])c1ccc(N2CCCC(n3cccc3)C2)c([N+](=O)[O-])c1 (centres undefined) ... 67.6
CCOc1ccc2c(c1)n([O-])c1cc(Br)ccc1[n+]2=O ... 78.6
Cc1cc(C)c(O)c(C(C)(C)C)c1 ... 66.8

List growth inhibition for every entry below, keeping the order given.
1. Nc1ccc2nc3ccccc3nc2c1
2. Cc1c2ccccc2c(CO)c2cc(F)c3ccccc3c12
3. COC1(OC)C2(Cl)C(Cl)=C(Cl)C1(Cl)C1C2C2CC1(C(=O)O)c1ccccc12 (centres undefined)
4. NNC(=O)c1ccccc1SSc1ccccc1C(=O)NN

Result ::
75.8
85
90.8
99.1

Parameters: items (list). Returns: growth inhibition for each item.
1. Cc1ccc(N=Nc2sc(N)nc2C)cc1C
2. CC(C)=NOCCOC(=O)C(c1ccccc1)c1ccccc1
3. CCN(CC)CC(O)c1ccc2cc(Cl)c3ccccc3c2c1 (centres undefined)
4. CC(C)OC(=O)c1ccc(CCC2=CC(=O)C=CC2=O)cc1

Result ::
1: 87.9; 2: 96.6; 3: 99.5; 4: 87.4

Could you report growth inhibition for every entry in the following list?
1. O=[N+]([O-])c1ccc(/C=C/[n+]2ccc3ccccc3c2)o1
2. Cc1ccccc1P(=O)(c1ccccc1C)c1ccccc1C

Result ::
1: 99.2; 2: 32.5

List reported growth inhibition for each of these compounds:
1. C/C(=N/NC(=O)c1ccccc1S(N)(=O)=O)C(CN1CCCCC1)C(C1=C(O)C2C=CC=CC2OC1=O)c1ccccc1 (centres undefined)
2. COC(=O)C1(C)CC2C(C)(CCC3(C)C4=CC=C5C(=CC(=O)C(O)=C5C)C4(C)CCC23C)CC1O (centres undefined)
3. Cc1ccc(S(=O)(=O)N/N=C2\CC(C)OC3=C2CCCCCC3)cc1 (centres undefined)

Result ::
88.8
87.3
75.6
